Recorded IC50 values for a group of molecules are listed next.
biological target: MAP kinase p38 (Homo sapiens, UniProt O15264+Q15759+Q16539+P53778); experiment: Inhibitory activity against TNF-alpha release in PBM cells; format: functional, cell-based
result type: IC50 (µM)

- CSc1nc(-c2ccc(F)cc2)c(-c2ccncc2)n1C1CC(C)(C)NC(C)(C)C1: 16
- CSc1nc(-c2ccc(F)cc2)c(-c2ccnc(NCc3ccccc3)c2)n1C: 0.58
- CCNc1cc(-c2c(-c3ccc(F)cc3)nc(SC)n2C)ccn1: 0.6
- CSc1nc(-c2ccc(F)cc2)c(-c2ccnc(NC(C)c3ccccc3)c2)n1C (centres undefined): 0.11
